Source: PubChem BioAssay AID1996

conditions: buffer; pH 7.4; 200.0 µM
Exercise: state measured solubility kinetic for each of the molecules provided.

The following molecules have reported results that may help.
>  <molecule>
CC(C)(C)NC(=O)c1cccnc1Sc1ccccc1

>  <solubility kinetic>
> 43 µg/mL

$$$$
>  <molecule>
Cc1cc(C(C)(C)C)cc(C)c1CCNC(=O)c1ccc[n+]([O-])c1

>  <solubility kinetic>
> 49 µg/mL

$$$$
>  <molecule>
CN(C(=O)COC(=O)c1cncc(Br)c1)C1CCCCC1

>  <solubility kinetic>
> 53.3 µg/mL

$$$$
>  <molecule>
CC1C(=O)N2CCCc3cc(S(=O)(=O)N4CCCCC4)cc1c32 (stereo unspecified)

>  <solubility kinetic>
> 50.2 µg/mL

$$$$

Working through the 8 molecules below one at a time, give solubility kinetic for each.
1. Cc1ccc(NC(=S)N2CCCC2)cc1C
2. CCOc1ccccc1N1C(=O)CC(=O)NC1=O
3. CN1C(=O)NC(c2ccc(Cl)cc2)C2=C1CC(C)(C)CC2=O (stereo unspecified)
4. CC(=O)NC(c1ccc(C)cc1)c1cc(Cl)c2cccnc2c1O (stereo unspecified)
5. O=C(Cc1ccc(Cl)cc1)OCC(=O)N1CCCCCC1
6. NC(=O)CSc1nnc(NC(=O)c2ccc(Br)o2)s1
7. Cc1nnc(SCC(=O)NC2CC2)n1-c1ccccc1
8. O=C(NCCc1ccc(O)c(O)c1)C1COc2ccccc2O1 (stereo unspecified)

Response:
1: > 35.2 µg/mL; 2: > 37.2 µg/mL; 3: > 47.8 µg/mL; 4: < 0.4 µg/mL; 5: > 46.5 µg/mL; 6: > 54.5 µg/mL; 7: > 43.3 µg/mL; 8: > 47.3 µg/mL

Working through the 8 molecules below one at a time, give solubility kinetic for each.
1. O=C(/C=C/c1ccc2c(c1)OCO2)NCC1CCCO1 (stereo unspecified)
2. Cc1nc(SCC(=O)NCC2CCCO2)[nH]c(=O)c1C (stereo unspecified)
3. Cc1cccc2c(=O)cc(C)n(CC(N)=O)c12
4. CC(C)Cc1nnc(NC(=O)CCC(=O)NC2CC2)s1
5. O=[N+]([O-])c1cc(CS(=O)(=O)Oc2ccc(Cl)cc2)c(O)c([N+](=O)[O-])c1
6. CNS(=O)(=O)c1ccc(N2CCCC2)c([N+](=O)[O-])c1
7. Cc1cc(C)cc(C(=O)OCC(=O)NCc2ccco2)c1
8. Cc1cc(C)n2nc(C(=O)OCC(=O)Nc3ccc(C)c(F)c3)nc2n1

Response:
1. > 41.3 µg/mL
2. > 44.6 µg/mL
3. > 34.5 µg/mL
4. > 44.5 µg/mL
5. > 58.3 µg/mL
6. > 42.8 µg/mL
7. > 43.1 µg/mL
8. > 53.6 µg/mL

Query: # input molecule: `Cc1ccc2nc(N3CCN(CCO)CC3)nc(-c3ccccc3)c2c1` ; wanted: its solubility kinetic
Response: > 52.3 µg/mL

###

conditions: buffer; pH 7.4; 200.0 µM
Exercise: state measured solubility kinetic for each of the compounds provided.

>  <compound>
CC1=CC(=C(C#N)C#N)C=C(C)N1CCN1CCNCC1

>  <solubility kinetic>
> 42.5 µg/mL

$$$$

Working through the 7 compounds below one at a time, give solubility kinetic for each.
1. Cc1ccnc2nc(C(=O)NCc3ccccc3)nn12
2. Fc1ccc(NC(=S)NCCN2CCOCC2)c(F)c1F
3. CSc1ncccc1C(=O)Nc1ccccc1N1CCOCC1
4. CN(C)CCOC(c1ccc(Cl)cc1)c1ccccn1.O=C(O)/C=C/C(=O)O (configuration not stated)
5. S=C(Nc1cccnc1)NC1CC2CCC1C2 (configuration not stated)
6. O=C1OC(CCl)CN1Cc1ccc([N+](=O)[O-])cc1 (configuration not stated)
7. O=C(O)c1ccccc1NS(=O)(=O)c1cccc(NS(=O)(=O)c2cc(Br)ccc2Br)c1

Response:
1. > 40.1 µg/mL
2. > 47.9 µg/mL
3. > 49.4 µg/mL
4. > 61 µg/mL
5. > 37.1 µg/mL
6. > 40.6 µg/mL
7. > 88.5 µg/mL
